Test system: DNA synthesis in Nb2 node lymphoma cells
Assay: Inhibition of ongoing DNA synthesis in prolactin-stimulated Nb2 cells
Type: cell-based, rat
Details: Nb2 cells stimulated with prolactin for 24 h
Procedure: Also inhibitions of protein and DNA synthesis of several compounds were measured using Nb2 node lymphoma cells which were stimulated by a treatment of cells with prolactin. (ibid.) ^a Nb2 cells were stimulated with prolactin for 24 h, then exposed to ^b 50% Inhibitory concentration, calculated with linear regression
Numbered stars: 1 amine (or outer) side, 2 acyl side, 3 side chain; on linkers, the order of the positions; unused ones are H or OH. Bridge positions count the residues as written; N and C are the ends. Square brackets hold non-standard residues; d marks the D form. Peptide text beside a SMILES is read from it. X4 = CC[C@H](C)[C@@H](N[*:1])[C@@H](O)CC(=O)O[C@@H](C(=O)[C@H](C)C(=O)[*:2])C(C)C; X1 = CC[C@H](C)[C@@H](N[*:1])[C@@H](O)CC(=O)O[C@H](C(=O)[C@H](C)C(=O)[*:2])C(C)C; NMeY = CN[C@@H](Cc1ccc(O)cc1)C(=O)O; dNMeL = CN[C@H](CC(C)C)C(=O)O
measured_parameter: IC50 DNA

Request: Tell me the measured IC50 DNA of CC[C@H](C)[C@H]1NC(=O)[C@@H](NC(=O)[C@@H](CC(C)C)N(C)C(=O)[C@@H]2CCCN2C(=O)[C@H](C)O)[C@@H](C)OC(=O)[C@H](Cc2ccc(O)cc2)NC(=O)[C@@H]2CCCN2C(=O)[C@H](CC(C)C)NC(=O)[C@@H](C)C(=O)[C@H](C(C)C)OC(=O)C[C@@H]1O , please.
Response: 200,000 ng/mL

Request: For the molecule CC[C@H](C)[C@@H](NC(=O)[C@@H](NC(=O)[C@@H](CC(C)C)NC)[C@@H](C)O)[C@@H](O)CC(=O)O[C@H](C(=O)[C@H](C)C(=O)N[C@@H](CC(C)C)C(=O)N1CCC[C@H]1C(=O)N(C)[C@@H](Cc1ccc(OC)cc1)C(=O)O)C(C)C [Acyclodidemnin A (16), Acyclodidemnin A] (H-[dNMeL]T[X1]LP[NMeY](Me)-OH) , what IC50 DNA is on record?
Response: inactive (1 g)

Request: Entry CC[C@H](C)[C@H]1NC(=O)[C@@H](NC(=O)[C@@H](CC(C)C)NC)[C@@H](C)OC(=O)[C@H](Cc2ccc(OC)cc2)N(C)C(=O)[C@@H]2CCCN2C(=O)[C@H](CC(C)C)NC(=O)[C@@H](C)C(=O)[C@@H](C(C)C)OC(=O)C[C@@H]1O [Epididemnin A (15), Epididemnin A] (H-[dNMeL]T[X4]LP[NMeY](Me); ester 2-C) : reported IC50 DNA = ?
Response: inactive (1 g)

Request: # input molecule: CC[C@H](C)[C@H]1NC(=O)[C@@H](NC(=O)[C@@H](CC(C)C)NC)[C@@H](C)OC(=O)[C@H](Cc2ccc(OC)cc2)N(C)C(=O)[C@@H]2CCCN2C(=O)[C@H](CC(C)C)NC(=O)[C@@H](C)C(=O)[C@H](C(C)C)OC(=O)C[C@@H]1OC(C)=O ; wanted: its IC50 DNA
Response: 270,000 ng/mL
